B1: TMEM120A (parent)
chain: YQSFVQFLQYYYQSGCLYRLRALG

# Variants of: B1
# measurement.description: protein stability index of a GFP-peptide fusion (GPS, HEK-293T) (PSI 1-6); higher = more stable;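 also: lentivirally expressed fusions sorted by FACS into six bins by GFP to DsRed ratio, PSI derived from sequencing read proportions per bin multiplied by bin number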
# measurement.setup: c terminus: a fixed tail appended
Where protein stability index equals or exceeds 3, the correct label is 1.0; where it does not, the label is 0.0.

### Prompt Is protein stability index at least 3? Consider G24C
### Response 0.0

### Prompt Is protein stability index at least 3? Consider S3D
### Response 1.0

### Prompt Is protein stability index at least 3? Consider R19Y
### Response 0.0

### Prompt Is protein stability index at least 3? Consider V5C
### Response 0.0

### Prompt Is protein stability index at least 3? Consider Q6L
### Response 1.0

New cases:
### Prompt Is protein stability index at least 3? Consider R19I
### Response 0.0

### Prompt Is protein stability index at least 3? Consider Y12L
### Response 0.0

### Prompt Is protein stability index at least 3? Consider L20E
### Response 0.0

### Prompt Is protein stability index at least 3? Consider Q2A
### Response 0.0

### Prompt Is protein stability index at least 3? Consider Q9M
### Response 0.0

### Prompt Is protein stability index at least 3? Consider F4R
### Response 0.0

### Prompt Is protein stability index at least 3? Consider L17R
### Response 1.0

### Prompt Is protein stability index at least 3? Consider L8Q
### Response 0.0

### Prompt Is protein stability index at least 3? Consider S3A
### Response 0.0
